Measured values drawn from patent US8889670B2 for this set.

Target: human CB2R (Homo sapiens)
Construct: host or cells: CHO cells
Assay: CB2R mediated modulation of cAMP synthesis (forskolin-stimulated cAMP, CHO cells expressing human CB2R)
Assay type: cell-based
Procedure: B. CB2R Mediated Modulation of cAMP Synthesis: Compounds of the invention were evaluated for their CB2 agonist or inverse agonistic activity in accordance with the following experimental method. CHO cells expressing human CB2R (Euroscreen) were plated at a density of 5000 cells per well in 384 well plates and incubated overnight at 37° C. […] Cells were lysed and the cAMP concentration was measured using DiscoverX-XS cAMP kit, following the manufacturer's protocol. […]
pEC50 overview
Scale explanation: pEC50 corresponds to minus log10 of a concentration expressed in moles per litre.

>>> df
                                   compound  value_kind  observed
0  CC(C)(C)c1cc(NC(=O)[C@H]2CCCCN2C(=O)C2CCC(F)(F)CC2)no1       pEC50      7.19

# pEC50 (compound: CC(C)(C)c1cc(NC(=O)C2COCCN2S(=O)(=O)c2ccc(Cl)cc2)no1 (stereo not drawn) ) is 7.47

# pEC50 (compound: CC(C)(C)c1cc(NC(=O)[C@@H]2CCCCN2C(=O)C2CCC(F)(F)CC2)on1 ) is 9.00

# pEC50 (compound: CC(C)(C)c1cc(NC(=O)C2CCCN(C(=O)C3CCC(F)(F)CC3)C2)no1 (stereo not drawn) ) is 7.64

# pEC50 (compound: CC(C)(C)c1cc(NC(=O)[C@@H]2C[C@@H](O)CCN2c2ncc(C(F)(F)F)cc2Cl)no1 ) is 9.52

# pEC50 (compound: O=C(Nc1nc2cc(Cl)ccc2s1)[C@@H]1CCCCN1CC1CCOCC1 ) is 9.70

* * *

biological target: human CB2R (Homo sapiens); construct: host or cells: CHO cells; test: CB2R mediated modulation of cAMP synthesis (forskolin-stimulated cAMP, CHO cells expressing human CB2R); type: cell-based
pEC50: −log10 of the molar value.
Tick 1 if pEC50 is 8 or greater. Tick -1 if pEC50 is less than 8.

Look over these answered cases.
                                   molecule  assigned_class
0  CC(C)(C)c1cc(NC(=O)[C@@H]2CCCCN2C(=O)c2ccc(F)cc2)no1               1
1  CC(C)(C)c1cc(NC(=O)[C@@H]2CCCN(c3ncc(C(F)(F)F)cc3Cl)C2)no1              -1
2  CC(C)(C)c1cc(NC(=O)[C@@H]2CCCCN2C(=O)C[C@H]2CCCO2)no1              -1
3  CC(C)(C)c1cc(NC(=O)C2CCCN(Cc3ccc(Cl)cc3)C2)no1 (stereo not shown)               1
4  CC(C)(C)c1coc(NC(=O)[C@@H]2CCCCN2CC2CCOCC2)n1               1

Kindly consider the entry below.
# check: pEC50 of CC(C)(C)c1cc(NC(=O)[C@@H]2CCCCN2C(=O)N2CCC(F)(F)CC2)no1 is greater than or equal to 8
1

* * *

pEC50 overview
Biological target: human CB2R (Homo sapiens)
Construct: host or cells: CHO cells
Assay: CB2R mediated modulation of cAMP synthesis (forskolin-stimulated cAMP, CHO cells expressing human CB2R)
Format: cell-based
Description: B. CB2R Mediated Modulation of cAMP Synthesis: Compounds of the invention were evaluated for their CB2 agonist or inverse agonistic activity in accordance with the following experimental method. CHO cells expressing human CB2R (Euroscreen) were plated at a density of 5000 cells per well in 384 well plates and incubated overnight at 37° C. […] Cells were lysed and the cAMP concentration was measured using DiscoverX-XS cAMP kit, following the manufacturer's protocol. […]
Scale explanation: pEC50 corresponds to minus log10 of a concentration expressed in moles per litre.

Answered examples (4):
                                   molecule  observed
0  CC(C)(C)c1cc(NC(=O)C2CCCCN2C(=O)C2CCC(F)(F)CC2)no1 (stereo not shown)      7.96
1  CC(C)(C)c1cc(NC(=O)[C@@H]2CCCCN2C(=O)CN2CCC(F)(F)CC2)no1      7.47
2  CC(C)(C)c1cc(NC(=O)[C@@H]2CCCCN2C(=O)CC2CCS(=O)(=O)C2)no1 (stereo partly shown)      8.11
3  O=C(Nc1ccc(C(F)(F)F)cn1)[C@@H]1CCCCN1CC1CCOCC1      7.16

# pEC50 (molecule: CC(C)(C)c1cc(NC(=O)[C@@H]2CCCCN2C(=O)CN2CCC(F)CC2)no1 ) is 7.12

# pEC50 (molecule: O=C(Nc1nc2c(F)cccc2s1)[C@@H]1CCCCN1CC1CCOCC1 ) is 8.89

# pEC50 (molecule: O=C(Nc1nc2cc(F)ccc2s1)[C@@H]1CCCCN1C(=O)N1CCS(=O)(=O)CC1 ) is 7.25

* * *

target: human CB2R (Homo sapiens, UniProt P34972); construct: host or cells: CHO cells; experiment: CB2R mediated modulation of cAMP synthesis (forskolin-stimulated cAMP, CHO cells expressing human CB2R); type: cell-based
Sequence (P34972 whole entry): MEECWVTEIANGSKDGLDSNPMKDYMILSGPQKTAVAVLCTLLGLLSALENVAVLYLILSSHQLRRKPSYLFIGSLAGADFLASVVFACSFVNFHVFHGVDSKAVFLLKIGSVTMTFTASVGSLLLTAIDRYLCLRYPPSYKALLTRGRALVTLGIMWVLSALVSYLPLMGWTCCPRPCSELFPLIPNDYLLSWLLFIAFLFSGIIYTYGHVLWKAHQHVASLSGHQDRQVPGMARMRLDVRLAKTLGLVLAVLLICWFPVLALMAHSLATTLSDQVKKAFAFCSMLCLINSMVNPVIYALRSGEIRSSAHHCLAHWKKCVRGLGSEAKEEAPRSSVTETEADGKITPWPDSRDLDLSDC
EC50 overview
The reply should be a number in nM, with the unit left off.

# EC50 (compound: O=C(Nc1nc(-c2ccc(F)cc2F)cs1)[C@@H]1CCCCN1C(=O)N1CCS(=O)(=O)CC1 ) is 22

# EC50 (compound: CC(C)(C)c1cc(NC(=O)[C@@H]2CCCCN2Cc2ccc(F)c(F)c2)no1 ) is 0.58

# EC50 (compound: O=C(Nc1nc(-c2ccc(F)c(F)c2)cs1)[C@@H]1CCCCN1CC1CCOCC1 ) is 3.6

* * *

Molecular target: human CB2R (Homo sapiens)
Construct: host or cells: CHO cells
Assay: CB2R mediated modulation of cAMP synthesis (forskolin-stimulated cAMP, CHO cells expressing human CB2R)
Format: cell-based
Description: B. CB2R Mediated Modulation of cAMP Synthesis: Compounds of the invention were evaluated for their CB2 agonist or inverse agonistic activity in accordance with the following experimental method. CHO cells expressing human CB2R (Euroscreen) were plated at a density of 5000 cells per well in 384 well plates and incubated overnight at 37° C. […] Cells were lysed and the cAMP concentration was measured using DiscoverX-XS cAMP kit, following the manufacturer's protocol. […]
EC50 overview
The reply should be a number in nM, with the unit left off.

>>> print(df.to_string())
                                   compound  unit_name  observed
0  CC(C)(C)c1cc(NC(=O)[C@@H]2CCCCN2C(=O)C2CCCCCC2)no1         nM       8.2

With human CB2R (Homo sapiens) as the test system, CC(C)(C)c1cc(NC(=O)[C@@H]2CCCCCN2C(=O)N2CCS(=O)(=O)CC2)no1 showed EC50 of 15

With human CB2R (Homo sapiens) as the test system, CC(C)(C)c1csc(NC(=O)[C@@H]2CCCCN2CC2CCOCC2)n1 showed EC50 of 13

With human CB2R (Homo sapiens) as the test system, CC(C)(C)c1cc(NC(=O)C2CCCN(S(=O)(=O)c3ccc(Cl)cc3)C2)no1 (stereo not shown) showed EC50 of 12
